settings: buffer; pH 7.4; 200.0 µM
# Lookup of reported solubility kinetic keyed by entry

q: What does the record list as solubility kinetic for CCCCN(C)C(=O)c1cc2cc([N+](=O)[O-])cc(OC)c2oc1=O ?
a: > 50.1 µg/mL

q: Query Cc1ccc(OCCCC(=O)NC(C)c2ccccc2)c(C)c1 (stereo unspecified) next
a: 22.6 µg/mL

q: Thanks! And c1ccc(Cc2nc3ccccc3[nH]2)cc1 ?
a: > 31.2 µg/mL

q: Input O=C(O)c1ccc(NC(=O)c2ccc(COc3ccccc3)o2)cc1
a: > 50.6 µg/mL

q: Also CCOC(=O)C1=C(C)OC(N)=C(C#N)C1c1cccc(C)c1 (stereo unspecified) , if possible.
a: 43.7 µg/mL

q: Same lookup for Cc1cc(C(=O)Nc2ccccc2C)on1 , please.
a: > 32.4 µg/mL

----------
details: buffer; pH 7.4; 200.0 µM
Catalogue of solubility kinetic values
Your answer should be a plain number; it is taken to be in µg/mL.

q: Please give the measured solubility kinetic for this molecule: COc1ccc(-c2nc(-c3cccnc3)no2)cc1
a: 2.1

q: // query: Cc1cc(C)nc(N2CCCC(C(=O)NC(C)C)C2)n1 (centres undefined)
a: 41.1

q: Further, for Cc1cn(CCC(=O)Nc2ccc(N3CCOCC3)cc2)c2ccccc12 ?
a: 46.7

q: Also CN(C)c1cccc2cccc(N(C)C)c12 , if possible.
a: 31.2

q: # iterate: CN1C(=O)/C(=C\c2ccco2)N=C1c1ccc(Cl)cc1Cl
a: 33

q: Proceed to COc1cccc(C(=O)NCCNC(=O)c2cnccn2)c1
a: 30.9

q: Now this one: O=C(COC(=O)/C=C/c1ccco1)NCc1ccc(Cl)cc1Cl
a: 7.6

q: Now consider COc1ccc(C(=O)NCCn2cc(SCC(N)=O)c3ccccc32)cc1 .
a: 50.6

q: Entry to check: COc1ccc(NC(=O)NCCCCc2ccccc2)cc1
a: 2.1

q: Same read-out for O=C(OCCN=C1NS(=O)(=O)c2ccccc21)c1ccccc1F ?
a: 5.7

q: Entry to check: CC1CCN(C2CC(=O)N(c3ccc(Br)cc3Br)C2=O)CC1 (centres undefined)
a: 40.4

q: Also check Cc1onc(-c2ccccc2Cl)c1C(=O)Nc1cccc(S(=O)(=O)N2CCOCC2)c1
a: 2

q: How about CS(=O)(=O)N(CC(=O)NCCSCc1cccc(Cl)c1)c1ccc(F)cc1 ?
a: 38

----------
conditions: buffer; pH 7.4; 200.0 µM
Decision: solubility kinetic >= 30 µg/mL yields Satisfied, all other cases yield Not satisfied.

Previously resolved entries follow.
[[record]]
compound = "O=C(NC12CC3CC(CC(C3)C1)C2)c1ccc(N2CCNCC2)c([N+](=O)[O-])c1"
discrete_label = "Satisfied"

[[record]]
compound = "Nc1cccc2cnccc12"
discrete_label = "Not satisfied"

[[record]]
compound = "CCCC(=O)Nc1sc(C)c(C)c1C#N"
discrete_label = "Not satisfied"

[[record]]
compound = "CCCCN(C(=O)COC(=O)c1ccc(C)s1)c1c(N)n(CCC)c(=O)[nH]c1=O"
discrete_label = "Not satisfied"

[[record]]
compound = "Cc1ccc(S(=O)(=O)N2CCC[C@H]2C(=O)Nc2ccccc2Cl)cc1"
discrete_label = "Not satisfied"


q: Tell me whether solubility kinetic is at least 30 µg/mL here: CNC(=O)COC(=O)CCC(=O)c1cccs1
a: Satisfied

q: Could you do the same for COc1ccc(NC(=O)c2ccc3c(c2)OCO3)cc1S(=O)(=O)N1CCOCC1 , please?
a: Not satisfied

q: Now give it for Cc1ccc(N2C(=O)CC(Sc3ncccn3)C2=O)cc1C (stereo not given) too.
a: Not satisfied

q: Please do the same for COc1ccc(OCC(O)CN2C(=O)c3ccccc3C2=O)cc1 (stereo not given) as well.
a: Satisfied

q: Could you do the same for Cc1ccc2nc(-c3ccccc3C)oc(=O)c2c1 , please?
a: Not satisfied

q: How about CCOC(=S)SCC(=O)Nc1ncc(C)s1 ?
a: Satisfied

----------
details: buffer; pH 7.4; 200.0 µM
Listed here: items and their measured solubility kinetic.
Report the figure in µg/mL without appending any unit label.

Example results:
[[record]]
compound = "CN(CC(=O)Nc1ccc(SC(F)F)cc1)C1CCCCC1"
experimental_value = 32.2

[[record]]
compound = "CCOC(=O)c1sc(N)c(C#N)c1COC(=O)C1=COCCO1"
experimental_value = 11.6

[[record]]
compound = "Cc1ccccc1/C=C/C12NC(=O)CN1c1ccccc1C2(C)C (stereo not drawn)"
experimental_value = 1

[[record]]
compound = "O=C(COC(=O)c1ccncc1)Nc1cccc2ccccc12"
experimental_value = 40.3

[[record]]
compound = "CCC(C)NC(=O)CN1c2cccc3cccc(c23)S1(=O)=O (stereo not drawn)"
experimental_value = 35.5


Would you kindly look at the next entry?
q: If you can, please state the reported solubility kinetic value of Cc1nc(Cl)c(C#N)c2c1CCCC2 .
a: 17.5

----------
// reported log10 solubility kinetic per item
conditions: buffer; pH 7.4; 200.0 µM
In our notation, the value equals log10 of solubility kinetic in µg/mL.

q: State the recorded log10 solubility kinetic for this entry: Cc1ccnc(N2CCCC(C(=O)NC3CC3)C2)n1 (configuration not stated)
a: 1.57

----------
details: buffer; pH 7.4; 200.0 µM
property-name: solubility kinetic (µg/mL)
Please reply with the bare figure in µg/mL and do not write the unit itself.

Example entries begin here.
[[record]]
compound = "COCCCn1c(SCC(=O)c2ccccc2)nc2ccccc2c1=O"
experimental_value = 1.1

[[record]]
compound = "Cc1cc(OCC(O)CN2CCCC2)cc(C)c1Cl.Cl (stereo unspecified)"
experimental_value = 42.3

[[record]]
compound = "CCOC(=O)c1oc2nc(CC(C)C)c3c(c2c1N)CCCC3"
experimental_value = 1.4


# ---- query compound ----
q: What does the data say about its solubility kinetic? Entry: CC(=O)Nc1ccc(C(=O)OCC(=O)N2CC3(C)CC2CC(C)(C)C3)cc1 (stereo unspecified)
a: 15.6

----------
conditions: buffer; pH 7.4; 200.0 µM
Param threshold (10 µg/mL) applies to solubility kinetic; output class 1 when value >= threshold, class 0 when value < threshold.

[[record]]
compound = "COc1ccccc1NS(=O)(=O)c1ccc2ccccc2c1"
discrete_label = "class 1"


q: Is solubility kinetic at least 10 µg/mL? Consider NC(=O)c1ccc(NC(=O)CSC(=O)c2ccccc2)cc1
a: class 1

q: // same read-out, input: COc1ccc(CCNC(=O)COC(=O)c2cccn2C)cc1
a: class 1

q: And for COc1ccc2[nH]c(C(=O)Nc3ccc4c(c3)OCO4)cc2c1 ?
a: class 0

q: Here is the next compound: CC(=O)N1C(=O)NC(c2ccccc2)=C([N+](=O)[O-])C1c1ccccc1 (stereo unspecified)
a: class 1

----------
This listing pairs compounds with measured solubility kinetic.
conditions: buffer; pH 7.4; 200.0 µM

[[record]]
compound = "NC(=O)NC(=O)COC(=O)c1ccc2noc(-c3ccccc3)c2c1"
property_name = "solubility kinetic"
experimental_value = "5.2 µg/mL"

[[record]]
compound = "CCOC(=O)Cc1csc(NS(=O)(=O)c2ccc([N+](=O)[O-])cc2)n1"
property_name = "solubility kinetic"
experimental_value = "> 55.7 µg/mL"

[[record]]
compound = "O=C(CN1CCS(=O)(=O)CC1)NNC(=O)C1CCCCC1"
property_name = "solubility kinetic"
experimental_value = "> 47.6 µg/mL"

[[record]]
compound = "CC1=NN(c2nc3ccccc3[nH]2)C(=O)/C1=C/N(C)C"
property_name = "solubility kinetic"
experimental_value = "> 40.4 µg/mL"

[[record]]
compound = "CCCS(=O)(=O)c1csc(C(=O)OC)c1N"
property_name = "solubility kinetic"
experimental_value = "28.7 µg/mL"


q: For the compound shown here, Cc1ccc(C(=O)NC(C)c2ccc(C)c(C)c2)s1 (configuration not stated) , give the reported solubility kinetic.
a: 3.5 µg/mL

q: Similarly, O=[N+]([O-])c1ccc(Oc2ccc(Oc3ccc(C(F)(F)F)cn3)cc2)nc1 ?
a: 0.3 µg/mL

q: Field entry: NC(=O)c1cc[n+](Cc2ccccc2Cl)cc1.[Br-]
a: > 49.1 µg/mL

q: CC1CCCN(Cc2ccc(OCc3ccccc3)cc2)C1 (configuration not stated) , same question.
a: 31.5 µg/mL

q: What would you report for O=C(c1c(F)cccc1F)N1CCN(CCOc2ccccc2)CC1 ?
a: > 52 µg/mL

q: Likewise for Cc1cccc(-c2noc(CNS(=O)(=O)c3ccccc3)n2)c1 ?
a: > 49.4 µg/mL

q: Please give the result for CN1CCCN(C(=O)c2cc3c(s2)CCCC3)CC1 too.
a: 39.7 µg/mL

----------
details: buffer; pH 7.4; 200.0 µM
Rule: 1 for solubility kinetic not less than 2 µg/mL, -1 for anything less.

Some solved entries appear below for comparison.
[[record]]
compound = "NC(=O)C1CCN(C(=O)c2ccc(Cl)c(S(=O)(=O)N3CCCCCC3)c2)CC1"
discrete_label = 1

[[record]]
compound = "Cc1ccc(NC(=O)CN2C(=O)S/C(=C/c3ccncc3)C2=O)cc1"
discrete_label = 1


q: Decide: solubility kinetic of COc1ccccc1NC(=O)COC(=O)CNC(=O)C1CCCCC1 >= 2 µg/mL?
a: 1

q: Try this compound next: CC(C)(C)c1ccc(C(=O)O/N=C(\N)c2ccccc2)cc1
a: -1

q: Also need Cc1ccccc1N1CCN(Cc2nc(Cc3ccccc3)no2)CC1 , thanks.
a: 1

q: Try this compound too: CCOC(=O)c1[nH]c2ccccc2c1NC(=O)NC(C)C
a: -1

q: Moving on to the next compound: Cc1c(C(=O)NC2CCCCC2C)oc2ccccc12 (stereo unspecified)
a: -1

q: # repeat for Cc1ccc(S(=O)(=O)C2(C(=O)NC3CCCCC3C)CC2)cc1 (stereo unspecified)
a: 1

q: And what about the compound O=C(/C=C/Nc1nccs1)C(F)(F)Cl ?
a: 1

q: // same read-out, input: Cc1ccc(/C(O)=C2\C(=O)C(=O)N(CC(C)O)C2c2ccccn2)cc1 (stereo unspecified)
a: 1

q: Now try O=C(CNC(=O)c1ccco1)N/N=C/c1ccc(C(=O)O)cc1 .
a: 1

Where do the numbers come from? From PubChem BioAssay AID1996.
